Source of measurements: patent US6528523B2

Reported IC50 by item:
Target: Farnesyl protein transferase (FPT) (Rattus norvegicus, UniProt Q02293+Q04631)
Construct: partially purified from rat brain by ammonium sulfate fractionation followed by Q-Sepharose
Sequence (Q02293 whole entry, one chain of several): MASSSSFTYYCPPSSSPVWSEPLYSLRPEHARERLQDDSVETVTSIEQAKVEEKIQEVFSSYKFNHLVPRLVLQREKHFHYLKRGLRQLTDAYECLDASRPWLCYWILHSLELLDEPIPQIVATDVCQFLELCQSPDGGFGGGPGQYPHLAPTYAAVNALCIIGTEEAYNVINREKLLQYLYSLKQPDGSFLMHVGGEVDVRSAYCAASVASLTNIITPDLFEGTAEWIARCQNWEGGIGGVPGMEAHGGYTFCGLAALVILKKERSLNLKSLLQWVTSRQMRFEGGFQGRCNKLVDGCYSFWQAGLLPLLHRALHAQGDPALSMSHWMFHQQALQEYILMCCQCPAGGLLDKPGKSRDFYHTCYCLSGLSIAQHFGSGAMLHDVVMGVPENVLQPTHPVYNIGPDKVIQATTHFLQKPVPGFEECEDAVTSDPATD
Assay: In vitro enzyme assay: inhibition of farnesyl protein transferase
Conditions: transfer of [3H]farnesyl from [3H]farnesyl pyrophosphate to Ras-CVLS
Measure Name: IC50

Molecule: CS(=O)(=O)N1CCC(C2c3ncc(Br)cc3C=Cc3cc(Cl)cc(Br)c32)CC1 (single isomer, unassigned) [Compound 13]
Target Or Test System: Farnesyl protein transferase (FPT) (Rattus norvegicus, UniProt Q02293+Q04631)
Measure Name: IC50
Measured Value: 3.3 nM

Molecule: CS(=O)(=O)N1CCC(C2c3ncc(Br)cc3C=Cc3cc(Cl)cc(Br)c32)CC1 (single isomer, unassigned) [Compound 14]
Target Or Test System: Farnesyl protein transferase (FPT) (Rattus norvegicus, UniProt Q02293+Q04631)
Measure Name: IC50
Measured Value: > 18 nM

Molecule: NC(=O)N1CCC(CC(=O)N2CCC(C3c4ncc(Br)cc4C=Cc4cc(Cl)cc(Br)c43)CC2)CC1 (single isomer, unassigned) [Compound 16]
Target Or Test System: Farnesyl protein transferase (FPT) (Rattus norvegicus, UniProt Q02293+Q04631)
Measure Name: IC50
Measured Value: 16 nM

###

Biological target: Farnesyl protein transferase (FPT) (Rattus norvegicus, UniProt Q02293+Q04631)
Construct: partially purified from rat brain by ammonium sulfate fractionation followed by Q-Sepharose
Assay: In vitro enzyme assay: inhibition of farnesyl protein transferase
Settings: transfer of [3H]farnesyl from [3H]farnesyl pyrophosphate to Ras-CVLS
pIC50: −log10 of the molar value.
Reported pIC50 values for the following molecules.

Molecule: O=C(Cc1cc[n+]([O-])cc1)N1CCC(C2c3ncc(Br)cc3C=Cc3cc(Cl)cc(Br)c32)CC1 (single isomer, unassigned) [Compound 12]
Readout Qualifier: <
pIC50: 7.77
//
Molecule: O=C(Cc1cc[n+]([O-])cc1)N1CCC(C2c3ncc(Br)cc3C=Cc3cc(Cl)cc(Br)c32)CC1 (single isomer, unassigned) [Compound 11]
Readout Qualifier: =
pIC50: 9.49
//
Molecule: NC(=O)N1CCC(CC(=O)N2CCC(C3c4ncc(Br)cc4C=Cc4cc(Cl)cc(Br)c43)CC2)CC1 (single isomer, unassigned) [Compound 15]
Readout Qualifier: =
pIC50: 9.40

###

melting point values, listed per item
Measure Name: melting point

Molecule: NC(=O)N1CCC(CC(=O)N2CCC(C3c4ncc(Br)cc4C=Cc4cc(Cl)cc(Br)c43)CC2)CC1 (single isomer, unassigned) [Compound 16]
Measured Value: 142 to 143 °C
//
Molecule: CS(=O)(=O)N1CCC(C2c3ncc(Br)cc3C=Cc3cc(Cl)cc(Br)c32)CC1 (single isomer, unassigned) [Compound 14]
Measured Value: 91 to 92 °C
//
Molecule: CS(=O)(=O)N1CCC(C2c3ncc(Br)cc3C=Cc3cc(Cl)cc(Br)c32)CC1 (single isomer, unassigned) [Compound 13]
Measured Value: 84 to 85 °C
//
Molecule: NC(=O)N1CCC(CC(=O)N2CCC(C3c4ncc(Br)cc4C=Cc4cc(Cl)cc(Br)c43)CC2)CC1 (single isomer, unassigned) [Compound 15]
Measured Value: 146 to 147 °C
//
Molecule: O=C(Cc1cc[n+]([O-])cc1)N1CCC(C2c3ncc(Br)cc3C=Cc3cc(Cl)cc(Br)c32)CC1 (single isomer, unassigned) [Compound 11]
Measured Value: 137 to 139 °C
//
Molecule: O=C(Cc1cc[n+]([O-])cc1)N1CCC(C2c3ncc(Br)cc3C=Cc3cc(Cl)cc(Br)c32)CC1 (single isomer, unassigned) [Compound 12]
Measured Value: 142 to 143 °C
